Source of measurements: ChEMBL document CHEMBL3352157

biological target: Adenosine receptor A2a (Homo sapiens); assay: Displacement of [3H]NECA from human adenosine A2A receptor expressed in CHO cells at 10 uM; type: cell-based
Sequence (P29274 whole entry): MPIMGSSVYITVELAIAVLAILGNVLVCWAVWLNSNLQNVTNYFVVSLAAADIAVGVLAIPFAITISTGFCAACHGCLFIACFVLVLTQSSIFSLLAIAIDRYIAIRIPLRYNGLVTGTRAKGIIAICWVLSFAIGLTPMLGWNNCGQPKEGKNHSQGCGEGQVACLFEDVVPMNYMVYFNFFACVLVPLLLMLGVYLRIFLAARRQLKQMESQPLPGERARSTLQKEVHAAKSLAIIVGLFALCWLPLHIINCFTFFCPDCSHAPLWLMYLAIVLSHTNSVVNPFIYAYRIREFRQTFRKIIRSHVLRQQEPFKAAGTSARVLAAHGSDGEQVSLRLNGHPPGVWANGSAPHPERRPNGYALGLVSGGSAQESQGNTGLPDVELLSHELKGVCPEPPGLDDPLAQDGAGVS
reportedEndpoint: inhibition (%)

| testSmiles | target | reportedEndpoint | experimentalValue |
| --- | --- | --- | --- |
| CCOC(=O)N1Cc2nc(-c3ccc(OC)cc3)nn2-c2cc(C)ccc21 | Adenosine receptor A2a (Homo sapiens) | inhibition | 2 |
| COc1ccc(-c2nc3n(n2)-c2cc(C)ccc2N(C(=O)OCc2ccccc2)C3)cc1 | Adenosine receptor A2a (Homo sapiens) | inhibition | 4 |
| COc1ccc(-c2ncn(-c3cc(C)ccc3NC(=O)OCc3ccccc3)n2)cc1 | Adenosine receptor A2a (Homo sapiens) | inhibition | 7 |
| Clc1ccc2ncc3nc(-c4ccccc4)nn3c2c1 | Adenosine receptor A2a (Homo sapiens) | inhibition | 19 |
